test system: ATP; test: switch fluorescence ratio, 500 uM ATP over buffer (Cy3 cluster intensity, sum of 5 cycles each) (fold (ratio)); higher = stronger signal-on switching upon ATP binding; sequences stand for … in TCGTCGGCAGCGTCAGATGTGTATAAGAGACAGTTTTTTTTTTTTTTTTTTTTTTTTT…TC; conditions: aptamer strand: ATP DNA aptamer (quencher-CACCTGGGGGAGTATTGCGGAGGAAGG + anchor), 100 nM annealed; ATP concentration: 500 uM;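 note: ATP exposure 15 min at 22 °C before imaging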
MEASURED_METRIC: switch fluorescence ratio
# respond with the number and nothing more

RESIDUE_SEQUENCE: AGGGGGGCGT
SYSTEM: ATP;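 note: ATP exposure 15 min at 22 °C before imaging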
switch fluorescence ratio: 1.01
--
RESIDUE_SEQUENCE: GCCGGCAATT
SYSTEM: ATP;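 note: ATP exposure 15 min at 22 °C before imaging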
switch fluorescence ratio: 1.01
--
RESIDUE_SEQUENCE: GAGTGGGCGG
SYSTEM: ATP;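 note: ATP exposure 15 min at 22 °C before imaging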
switch fluorescence ratio: 0.996
--
RESIDUE_SEQUENCE: AGAGGCAAGA
SYSTEM: ATP;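 note: ATP exposure 15 min at 22 °C before imaging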
switch fluorescence ratio: 1.16

**Q:** Fill in: switch fluorescence ratio of `GAAGTTTGTG` is ___
**A:** 1.02

**Q:** Param item: `TGGAGTCAGG`
**A:** 1.05

----------
Listed here: items and their measured switch fluorescence ratio.
test system: ATP; assay: switch fluorescence ratio, 500 uM ATP over buffer (Cy3 cluster intensity, sum of 5 cycles each) (fold (ratio)); higher = stronger signal-on switching upon ATP binding; sequences stand for … in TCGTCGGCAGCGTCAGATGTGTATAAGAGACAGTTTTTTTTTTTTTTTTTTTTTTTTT…TC; conditions: aptamer strand: ATP DNA aptamer (quencher-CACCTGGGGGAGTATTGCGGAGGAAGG + anchor), 100 nM annealed; ATP concentration: 500 uM;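 note: ATP exposure 15 min at 22 °C before imaging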

RESIDUE_SEQUENCE: AAGAGGTGGA
switch fluorescence ratio: 1.03

RESIDUE_SEQUENCE: GGTTTGTTTG
switch fluorescence ratio: 0.999

RESIDUE_SEQUENCE: TTTGACTTTA
switch fluorescence ratio: 1

RESIDUE_SEQUENCE: ATAACTTATA
switch fluorescence ratio: 1.01

RESIDUE_SEQUENCE: ATATTGCTCG
switch fluorescence ratio: 1.05

RESIDUE_SEQUENCE: GTTGAAAATT
switch fluorescence ratio: 0.99

**Q:** Could you tell me which switch fluorescence ratio is on file for `CGACTTTCAA` ?
**A:** 1.05

**Q:** Follow-up entry: `GGGGGGAGAA`
**A:** 1.01

**Q:** Entry `AAGTGTTGGC` please
**A:** 1.01

**Q:** Next up: `TTTGCAGTTT`
**A:** 0.997

**Q:** Next entry: `GGGTATTGCG`
**A:** 0.977

**Q:** Check `TCTGTTAGGA` too.
**A:** 1

----------
test system: ATP; assay: switch fluorescence ratio, 500 uM ATP over buffer (Cy3 cluster intensity, sum of 5 cycles each) (fold (ratio)); higher = stronger signal-on switching upon ATP binding; sequences stand for … in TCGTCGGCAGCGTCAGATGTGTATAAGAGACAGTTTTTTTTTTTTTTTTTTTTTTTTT…TC; conditions: aptamer strand: ATP DNA aptamer (quencher-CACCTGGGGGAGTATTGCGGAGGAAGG + anchor), 100 nM annealed; ATP concentration: 500 uM;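 note: ATP exposure 15 min at 22 °C before imaging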
MEASURED_METRIC: switch fluorescence ratio
Would you mind answering with just the numeric figure?

**Q:** I would be grateful if you could share the reported switch fluorescence ratio for `AGGTTTATTT` .
**A:** 1.02

**Q:** Ok, now `TTATAGGCGC`
**A:** 1.03

**Q:** Repeat with `CTTTTCGGGT`
**A:** 0.964

Data provenance: the supplement of paper PMC10126150
